IC50 values, listed per item
Target: Protein kinase C eta type (Homo sapiens)
Sequence (P24723 whole entry): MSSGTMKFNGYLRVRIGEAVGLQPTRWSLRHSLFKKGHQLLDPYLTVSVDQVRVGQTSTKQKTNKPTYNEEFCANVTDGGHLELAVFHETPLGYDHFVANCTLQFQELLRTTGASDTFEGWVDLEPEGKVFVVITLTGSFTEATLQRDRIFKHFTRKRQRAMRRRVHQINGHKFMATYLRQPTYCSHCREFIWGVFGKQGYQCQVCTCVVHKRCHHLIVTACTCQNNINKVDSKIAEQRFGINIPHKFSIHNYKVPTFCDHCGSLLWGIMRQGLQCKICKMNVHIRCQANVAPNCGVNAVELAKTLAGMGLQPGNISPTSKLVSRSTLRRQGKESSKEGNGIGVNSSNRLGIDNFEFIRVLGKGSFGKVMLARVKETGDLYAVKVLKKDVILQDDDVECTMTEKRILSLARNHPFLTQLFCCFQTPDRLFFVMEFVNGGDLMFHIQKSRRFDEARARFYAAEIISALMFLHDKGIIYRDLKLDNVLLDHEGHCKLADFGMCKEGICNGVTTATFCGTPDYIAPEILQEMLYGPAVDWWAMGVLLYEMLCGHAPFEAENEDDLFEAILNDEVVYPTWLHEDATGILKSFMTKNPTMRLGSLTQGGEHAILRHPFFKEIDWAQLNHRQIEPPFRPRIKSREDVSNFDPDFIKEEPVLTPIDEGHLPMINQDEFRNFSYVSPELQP
Assay: Inhibition of recombinant human PKCeta assessed as [33P]-ATP incorporation into tridecapeptide substrate after 60 mins by scintillation proximity assay
Form entry: value (nM) — number only.

{"columns": ["chemicalSmiles", "assaySystem", "IC50 / nM"],
 "data": [
  ["NCCNc1nc(-c2ccncc2)cc2ccccc12", "Protein kinase C eta type (Homo sapiens)", 743],
  ["NCCNc1nc(-c2ccncc2)nc2cnccc12", "Protein kinase C eta type (Homo sapiens)", 27],
  ["C[C@H](N)CNc1nc(-c2ccncc2)cc2cnccc12", "Protein kinase C eta type (Homo sapiens)", 2],
  ["c1cc(-c2cc3cnccc3c(N3CCNCC3)n2)ccn1", "Protein kinase C eta type (Homo sapiens)", 6]
]}

Consider the compound CC(C)Nc1cc(-c2cc3cnccc3c(NCC(C)(C)N)n2)ccn1 and give its measured IC50.
862

Consider the compound NCCNc1cc(-c2ccncc2)cc2cnccc12 and give its measured IC50.
54

====

IC50 values, listed per item
Target: Protein kinase C beta type (Homo sapiens)
Assay: Inhibition of recombinant human PKCbeta1 assessed as [33P]-ATP incorporation into tridecapeptide substrate after 60 mins by scintillation proximity assay
Form entry: value (µM) — number only.

{"columns": ["chemicalSmiles", "readoutUnits", "IC50"],
 "data": [
  ["c1cc(-c2cc3cnccc3c(N3CCCNCC3)n2)ccn1", "µM", 0.661]
]}

--- query ---
Consider the compound c1cc(-c2cc3cnccc3c(N3CCNCC3)n2)ccn1 and give its measured IC50.
0.823

====

Target: Protein kinase C beta type (Homo sapiens, UniProt P05771)
Sequence (P05771 whole entry): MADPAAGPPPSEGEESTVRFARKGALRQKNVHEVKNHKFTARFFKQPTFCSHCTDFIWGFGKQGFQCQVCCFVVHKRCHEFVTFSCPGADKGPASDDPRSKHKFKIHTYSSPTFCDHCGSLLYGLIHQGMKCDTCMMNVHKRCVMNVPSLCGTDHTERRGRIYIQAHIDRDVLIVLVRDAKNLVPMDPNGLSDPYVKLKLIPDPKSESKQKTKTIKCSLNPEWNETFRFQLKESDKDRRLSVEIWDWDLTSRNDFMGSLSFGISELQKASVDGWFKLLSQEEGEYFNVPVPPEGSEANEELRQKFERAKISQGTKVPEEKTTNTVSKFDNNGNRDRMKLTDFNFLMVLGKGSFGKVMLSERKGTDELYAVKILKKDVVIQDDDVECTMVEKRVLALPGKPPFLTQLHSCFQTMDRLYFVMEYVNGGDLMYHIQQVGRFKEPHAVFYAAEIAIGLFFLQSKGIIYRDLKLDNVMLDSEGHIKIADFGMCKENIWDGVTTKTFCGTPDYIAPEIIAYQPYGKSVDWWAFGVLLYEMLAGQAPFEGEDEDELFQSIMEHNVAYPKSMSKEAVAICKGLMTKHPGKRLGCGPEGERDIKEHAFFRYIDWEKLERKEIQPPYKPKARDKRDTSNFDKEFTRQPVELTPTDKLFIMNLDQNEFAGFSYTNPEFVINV
Assay: Inhibition of recombinant human PKCbeta1 assessed as [33P]-ATP incorporation into tridecapeptide substrate after 60 mins by scintillation proximity assay
pIC50: −log10 of the molar value.
recordedMetric: pIC50

Consider the following illustrative entries.
{"columns": ["chemicalSmiles", "assaySystem", "pIC50"],
 "data": [
  ["NCCNc1nc(-c2ccncc2)cc2ncccc12", "Protein kinase C beta type (Homo sapiens, UniProt P05771)", "< 6.00"],
  ["NCCNc1cc(-c2ccncc2)cc2cnccc12", "Protein kinase C beta type (Homo sapiens, UniProt P05771)", "< 6.00"]
]}

--- query ---
Consider the compound O=C1CN(c2nc(-c3ccncc3)cc3cnccc23)CCN1 and give its measured pIC50.
< 6.00

Where do the numbers come from? From ChEMBL document CHEMBL2146454.
